Parameter: self-cleavage. Scope: all listed entries.
B1: CPEB3 Ribozyme (parent)
chain: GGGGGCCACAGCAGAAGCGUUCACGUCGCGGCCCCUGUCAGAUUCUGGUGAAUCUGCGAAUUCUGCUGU

Variants of: B1
Method notes: self-cleavage, relative activity (ratio to wild type); higher = more cleavage; co-transcriptional
Just the number, please, no unit attached.

Solved entries (count: 5):
{"Mutant id": "G19A C57G", "Reported": 0.137}
{"Mutant id": "A40C U61C", "Reported": 0.339}
{"Mutant id": "G5U G68A", "Reported": 0.886}
{"Mutant id": "G56A C57G", "Reported": 0.306}
{"Mutant id": "C33G C39A", "Reported": 0.387}

What measured self-cleavage goes with C57G U64G ?
0.394

What measured self-cleavage goes with C34G G68C ?
0.842

What measured self-cleavage goes with C22A U53A ?
0.208

What measured self-cleavage goes with C7G U26C ?
0.247

What measured self-cleavage goes with A8G G56C ?
0.233
